target: T1, αvβ3 integrin on cells (U87MG glioblastoma cells; K562-αvβ3 cells) (UniProt P06756 31-1048; P05106 27-788)
T1 construct: whole, on cells; also called cell surface αvβ3 integrin
T1 sequence (P06756 31-1048, chain 1 of 2): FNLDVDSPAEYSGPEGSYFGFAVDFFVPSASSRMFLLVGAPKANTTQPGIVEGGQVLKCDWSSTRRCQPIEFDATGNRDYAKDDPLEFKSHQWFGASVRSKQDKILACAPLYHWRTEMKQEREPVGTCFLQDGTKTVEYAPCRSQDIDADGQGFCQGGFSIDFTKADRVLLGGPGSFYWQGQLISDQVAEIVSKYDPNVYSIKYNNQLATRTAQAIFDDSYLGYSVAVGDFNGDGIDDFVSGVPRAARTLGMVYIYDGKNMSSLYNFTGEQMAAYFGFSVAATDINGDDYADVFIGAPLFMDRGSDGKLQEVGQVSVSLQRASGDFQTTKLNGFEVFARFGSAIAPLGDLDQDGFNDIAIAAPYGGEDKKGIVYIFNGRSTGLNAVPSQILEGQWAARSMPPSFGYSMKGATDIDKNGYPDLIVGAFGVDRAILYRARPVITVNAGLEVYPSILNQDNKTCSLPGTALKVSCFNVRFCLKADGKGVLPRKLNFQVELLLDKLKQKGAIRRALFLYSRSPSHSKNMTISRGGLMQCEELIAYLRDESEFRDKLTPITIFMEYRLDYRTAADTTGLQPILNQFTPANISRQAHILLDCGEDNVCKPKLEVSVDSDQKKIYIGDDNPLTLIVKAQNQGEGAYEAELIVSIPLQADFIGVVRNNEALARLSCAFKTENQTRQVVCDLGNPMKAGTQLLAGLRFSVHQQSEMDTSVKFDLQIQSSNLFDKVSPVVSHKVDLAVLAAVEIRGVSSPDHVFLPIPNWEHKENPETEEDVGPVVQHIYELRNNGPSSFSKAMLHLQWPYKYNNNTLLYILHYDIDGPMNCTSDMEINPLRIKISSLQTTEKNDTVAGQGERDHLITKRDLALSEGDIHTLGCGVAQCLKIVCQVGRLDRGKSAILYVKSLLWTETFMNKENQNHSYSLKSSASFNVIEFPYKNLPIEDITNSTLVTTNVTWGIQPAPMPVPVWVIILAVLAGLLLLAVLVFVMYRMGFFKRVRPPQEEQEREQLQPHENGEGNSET
T1 sequence (P05106 27-788, chain 2 of 2): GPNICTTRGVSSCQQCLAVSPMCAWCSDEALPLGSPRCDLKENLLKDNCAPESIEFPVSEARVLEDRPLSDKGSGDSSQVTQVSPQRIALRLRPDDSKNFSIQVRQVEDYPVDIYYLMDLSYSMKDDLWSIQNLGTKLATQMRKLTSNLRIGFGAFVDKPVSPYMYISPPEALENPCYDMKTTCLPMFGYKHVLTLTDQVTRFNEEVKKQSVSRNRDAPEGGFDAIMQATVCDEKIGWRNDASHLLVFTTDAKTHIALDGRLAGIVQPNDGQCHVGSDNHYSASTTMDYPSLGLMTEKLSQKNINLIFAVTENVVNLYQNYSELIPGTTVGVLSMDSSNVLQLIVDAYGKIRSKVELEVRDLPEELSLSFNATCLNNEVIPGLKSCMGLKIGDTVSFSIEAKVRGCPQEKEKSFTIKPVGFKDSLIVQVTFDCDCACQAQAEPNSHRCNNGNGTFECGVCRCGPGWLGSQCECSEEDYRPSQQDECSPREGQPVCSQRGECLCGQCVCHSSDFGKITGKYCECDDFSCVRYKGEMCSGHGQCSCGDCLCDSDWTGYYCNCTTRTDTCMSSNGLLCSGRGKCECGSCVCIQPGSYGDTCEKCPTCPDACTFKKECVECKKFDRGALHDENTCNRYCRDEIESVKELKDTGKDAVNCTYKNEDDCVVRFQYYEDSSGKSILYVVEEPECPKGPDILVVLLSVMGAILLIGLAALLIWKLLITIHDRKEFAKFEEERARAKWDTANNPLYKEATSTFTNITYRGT
experiment-description: competing off ^125I-echistatin, U87MG cells
No end group written: not given here.
Can you tell me IC50 for the items I'm about to list?

Exam item: Bench note: what IC50 did GCVRLHESCLGQQVPCCDPAATCYCVERGDGNRRCYCR (ends and bridges not checked; cysteine pairing not given here) [6E (synthesized Mini-RGD-AgRP peptide)] show?
Marked response: 130 nM

Exam item: Bench note: what IC50 did GCVRLHESCLGQQVPCCDPAATCYCQYRGDGMKHCYCR (ends and bridges not checked; cysteine pairing not given here) [3F (synthesized Mini-RGD-AgRP peptide)] show?
Marked response: 880 nM

Exam item: Bench note: what IC50 did GCVRLHESCLGQQVPCCDPAATCYCYGRGDNDLRCYCR (also called AgRP Clone 7C; Agouti peptide 7C) [synthetic AgRP peptide 7C (without epitope tags)] show?
Marked response: 23 nM

Exam item: Bench note: what IC50 did GCVRLHESCLGQQVPCCDPAATCYCESRGDVVRKCYCR (ends and bridges not checked; cysteine pairing not given here) [6F (synthesized Mini-RGD-AgRP peptide)] show?
Marked response: 410 nM

Measured values drawn from patent US20210023171A1 for this set.
